System: A498 complex spheroids with HUVEC/MSC, growth
protocol: Anticancer human tumor A498 cell line growth inhibition [AhR];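 further: luminescence signal used as a surrogate for viable cells; seven day exposure starting three days after spheroid seeding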
details: second compound 1 µM; first compound 0.000949 µM; hits give low values
From the text: Multicellular complex tumor spheroid response to aryl hydrocarbon receptor antagonists in combination with a variety of drugs and investigational agents in selected tumor cell lines […] Compounds. […] If the clinical Cmax for an agent had not been determined, the highest concentration tested was 10 microM (Table 1). […]
// assign Met if viability, T/C falls strictly below 80%, else Not met (ties count as Not met)

CCc1c2c(nc3ccc(O)cc13)-c1cc3c(c(=O)n1C2)COC(=O)[C@]3(O)CC + Cc1cncc(-c2nc(NCCc3c[nH]c4ccccc34)c3ncn(C(C)C)c3n2)c1	Met
CCc1c2c(nc3ccc(O)cc13)-c1cc3c(c(=O)n1C2)COC(=O)[C@]3(O)CC + Cc1ccccc1N=Nc1ccc(NC(=O)c2ccnn2C)c(C)c1	Not met
CC(C)CC(NC(=O)C(Cc1ccccc1)NC(=O)c1cnccn1)B(O)O (centres undefined) + Cc1cncc(-c2nc(NCCc3c[nH]c4ccccc34)c3ncn(C(C)C)c3n2)c1	Not met
Nc1ncn(C2CC(O)C(CO)S2)c(=O)n1 (centres undefined) + Cc1ccccc1N=Nc1ccc(NC(=O)c2ccnn2C)c(C)c1	Not met
Nc1ncn(C2CC(O)C(CO)S2)c(=O)n1 (centres undefined) + Cc1cncc(-c2nc(NCCc3c[nH]c4ccccc34)c3ncn(C(C)C)c3n2)c1	Not met
CC(C)CC(NC(=O)C(Cc1ccccc1)NC(=O)c1cnccn1)B(O)O (centres undefined) + CC(CO)NC(=O)c1cc(-c2ccc(Cl)cc2)nn(-c2cnn(C)c2)c1=O	Not met
CCc1c2c(nc3ccc(O)cc13)-c1cc3c(c(=O)n1C2)COC(=O)[C@]3(O)CC + CC(CO)NC(=O)c1cc(-c2ccc(Cl)cc2)nn(-c2cnn(C)c2)c1=O	Met
Nc1ncn(C2CC(O)C(CO)S2)c(=O)n1 (centres undefined) + CC(CO)NC(=O)c1cc(-c2ccc(Cl)cc2)nn(-c2cnn(C)c2)c1=O	Not met

Data provenance is PubChem BioAssay AID1919007.
